Each entry below carries its reported pEC50.
- Test system: HCVcc
- Procedure Text: microbe, parasite or virus in culture
- Run Parameters: Hepatitis C virus, Huh7.5
Note on pEC50: it is the negative log10 of concentration, concentration in mol/L.

# Structure Notation, Experimental Target, pEC50
data = [
    ("C#Cc1cccc(Nc2ncnc3cc(OCCOC)c(OCCOC)cc23)c1", "HCVcc", 6.33),
    ("CNC(=O)c1cc(Oc2ccc(NC(=O)Nc3ccc(Cl)c(C(F)(F)F)c3)cc2)ccn1", "HCVcc", 6.33),
]

IN: I am curious: what pEC50 value has been reported for Cc1cn(-c2cc(NC(=O)c3ccc(C)c(Nc4nccc(-c5cccnc5)n4)c3)cc(C(F)(F)F)c2)cn1 ?
OUT: 7.40

IN: Also Cc1ccc(NC(=O)c2ccc(CN3CCN(C)CC3)cc2)cc1Nc1nc(-c2cccnc2)cs1 ?
OUT: 6.11
